B1: MTMR15 (parent)
chain: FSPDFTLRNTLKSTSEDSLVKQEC

Variants of: B1
protocol.text: protein stability index of a GFP-peptide fusion (GPS, HEK-293T) (PSI 1-6); higher = more stable;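 note: lentivirally expressed fusions sorted by FACS into six bins by GFP to DsRed ratio, PSI derived from sequencing read proportions per bin multiplied by bin number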
assay.conditions: c terminus: a fixed tail appended
protein stability index of 3 or higher: Criterion met. Under 3: Criterion not met.

Consider the following illustrative entries.
FSPVFTLRNTLKSTSEDSLVKQEC [D4V]: Criterion not met
FSPDFTLRNTLESTSEDSLVKQEC [K12E]: Criterion not met
FSPDFTLRNTLKSTSERSLVKQEC [D17R]: Criterion not met

Qu. Quick check: does FSPDFTLRNTLKSTSEDGLVKQEC [S18G] have protein stability index greater than or equal to 3?
Ans. Criterion not met

Qu. Quick check: does FSPDFTLRNTLKSTSEDSWVKQEC [L19W] have protein stability index greater than or equal to 3?
Ans. Criterion not met

Qu. Quick check: does FSPDITLRNTLKSTSEDSLVKQEC [F5I] have protein stability index greater than or equal to 3?
Ans. Criterion met

Qu. Quick check: does FSPDFYLRNTLKSTSEDSLVKQEC [T6Y] have protein stability index greater than or equal to 3?
Ans. Criterion not met

Qu. Quick check: does GSPDFTLRNTLKSTSEDSLVKQEC [F1G] have protein stability index greater than or equal to 3?
Ans. Criterion met

Sourced from the supplement of paper PMC10567573
